For each entry below, report its IC90, Myostatin SMAD RGA value.
- measured on: ActRIIA and ActRIIB (on TGFB/SMAD SBE Reporter HEK293 cells) (human)
- Sequence (chain, as listed by the source, chain 1 of 2): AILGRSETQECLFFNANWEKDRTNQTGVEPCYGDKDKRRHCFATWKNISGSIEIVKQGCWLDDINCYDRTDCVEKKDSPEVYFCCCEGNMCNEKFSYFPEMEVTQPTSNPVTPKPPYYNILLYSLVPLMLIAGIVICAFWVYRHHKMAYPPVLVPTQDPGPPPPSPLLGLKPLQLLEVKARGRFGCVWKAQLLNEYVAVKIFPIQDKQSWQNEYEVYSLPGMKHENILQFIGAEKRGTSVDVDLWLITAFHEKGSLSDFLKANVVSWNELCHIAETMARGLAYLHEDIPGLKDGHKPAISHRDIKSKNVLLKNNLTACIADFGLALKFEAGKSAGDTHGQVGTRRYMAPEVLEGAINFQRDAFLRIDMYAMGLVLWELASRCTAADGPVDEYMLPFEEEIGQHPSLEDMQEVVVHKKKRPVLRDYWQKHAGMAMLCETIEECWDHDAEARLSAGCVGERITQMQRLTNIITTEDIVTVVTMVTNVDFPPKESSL
- Sequence (chain, as listed by the source, chain 2 of 2): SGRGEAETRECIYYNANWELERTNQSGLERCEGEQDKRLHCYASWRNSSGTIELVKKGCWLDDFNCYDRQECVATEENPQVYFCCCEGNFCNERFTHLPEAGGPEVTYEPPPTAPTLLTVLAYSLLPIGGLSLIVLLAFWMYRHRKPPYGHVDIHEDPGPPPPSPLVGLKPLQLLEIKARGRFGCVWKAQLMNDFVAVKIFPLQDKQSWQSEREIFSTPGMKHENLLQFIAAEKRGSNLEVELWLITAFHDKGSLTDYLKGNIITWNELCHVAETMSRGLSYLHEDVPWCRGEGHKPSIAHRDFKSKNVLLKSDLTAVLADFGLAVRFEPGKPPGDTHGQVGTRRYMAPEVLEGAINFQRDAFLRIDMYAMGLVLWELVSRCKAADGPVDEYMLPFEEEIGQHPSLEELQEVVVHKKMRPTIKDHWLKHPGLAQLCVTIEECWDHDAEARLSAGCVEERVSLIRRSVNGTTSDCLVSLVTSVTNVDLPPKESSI
- experiment notes: cell-based or functional assay
Write the answer as a number in nM, unit excluded.

Given the entry Antibody Ochsauga (antibody, V domains shown, full-length IgG) VH: QVQLVQSGAEVKKPGASVKVSCKASGYTFTSSYINWVRQAPGQGLEWMGTINAVSGSTSYAQKFQGRVTMTRDTSISTAYMELSRLRSDDTAVYYCARGGWFDVWGQGTLVTVSS VL: QSALTQPASVSGSPGQSITISCTGTSSDIGSYNYVNWYQQHPGKAPKLMIYGVSKRESGVSNRFSGSKSGNTASLTISGLQAEDEADYYCGTFAGGSYYGVFGGGTKLTVL , report its measured IC90, Myostatin SMAD RGA.
2.21

Another: Antibody Soidawürstle (antibody, V domains shown, full-length IgG; also called Soidawüsrstel) VH: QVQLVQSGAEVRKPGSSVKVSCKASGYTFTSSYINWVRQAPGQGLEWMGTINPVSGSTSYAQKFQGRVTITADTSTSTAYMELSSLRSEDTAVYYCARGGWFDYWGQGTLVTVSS VL: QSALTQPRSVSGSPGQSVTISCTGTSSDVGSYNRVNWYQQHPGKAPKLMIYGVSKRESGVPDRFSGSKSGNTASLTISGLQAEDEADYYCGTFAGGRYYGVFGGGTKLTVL
6.63

Another: Antibody Hefaknöpfla (antibody, V domains shown, full-length IgG) VH: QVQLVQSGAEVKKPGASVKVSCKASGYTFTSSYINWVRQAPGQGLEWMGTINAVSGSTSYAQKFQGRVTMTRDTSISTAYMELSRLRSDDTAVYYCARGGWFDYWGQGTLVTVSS VL: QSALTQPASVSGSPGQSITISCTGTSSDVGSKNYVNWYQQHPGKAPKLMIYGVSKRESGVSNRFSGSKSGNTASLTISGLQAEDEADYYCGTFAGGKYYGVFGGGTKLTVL
5.37

Another: Antibody Fasnetsküchla (antibody, V domains shown, full-length IgG) VH: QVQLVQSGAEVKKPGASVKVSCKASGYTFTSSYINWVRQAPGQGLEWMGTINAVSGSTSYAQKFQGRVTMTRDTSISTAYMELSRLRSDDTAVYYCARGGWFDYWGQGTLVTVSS VL: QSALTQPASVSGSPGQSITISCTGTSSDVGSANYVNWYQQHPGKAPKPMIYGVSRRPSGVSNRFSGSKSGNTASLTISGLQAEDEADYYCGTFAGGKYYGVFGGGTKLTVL
4.63

All values here come from patent US20250243286A1.
